These measurements were taken from patent EP0428132A1.

The following are reported MIC results, target or system Cryptococcus neoformans IAM4514.
Output spec: scalar in µg/mL, unitless text.

[
  {
    "compound": "COc1cc(O)c2c(c1)C(=O)c1c(cc3c(c1O)-c1c(cc(C)c(C(=O)N[C@H](C)C(=O)O)c1O)[C@H](O[C@@H]1O[C@H](C)[C@H](NCS(=O)(=O)O)[C@H](O[C@@H]4OC[C@@H](O)[C@H](O)[C@H]4O)[C@H]1O)[C@H]3O)C2=O [Ex. 7, N-(sodiosulfomethyl) pradimicin C]",
    "MIC [µg/mL]": 0.4
  },
  {
    "compound": "COc1cc(O)c2c(c1)C(=O)c1c(cc3c(c1O)-c1c(cc(C)c(C(=O)N[C@H](C)C(=O)O)c1O)[C@H](O[C@@H]1O[C@H](C)[C@H](N(C)C/C=C/C(=O)O)[C@H](O[C@@H]4OC[C@@H](O)[C@H](O)[C@H]4O)[C@H]1O)[C@H]3O)C2=O",
    "MIC [µg/mL]": 25
  },
  {
    "compound": "COc1cc(O)c2c(c1)C(=O)c1c(cc3c(c1O)-c1c(cc(C)c(C(=O)N[C@H](C)C(=O)O)c1O)[C@H](O[C@@H]1O[C@H](C)[C@H](N(C)CC(N)=O)[C@H](O[C@@H]4OC[C@@H](O)[C@H](O)[C@H]4O)[C@H]1O)[C@H]3O)C2=O",
    "MIC [µg/mL]": 3.1
  },
  {
    "compound": "COc1cc(O)c2c(c1)C(=O)c1c(cc3c(c1O)-c1c(cc(C)c(C(=O)N[C@H](C)C(=O)O)c1O)[C@H](O[C@@H]1O[C@H](C)[C@H](N(C)C(=O)CCN)[C@H](O[C@@H]4OC[C@@H](O)[C@H](O)[C@H]4O)[C@H]1O)[C@H]3O)C2=O",
    "MIC [µg/mL]": 1.6
  },
  {
    "compound": "CCOC(=O)CN(C)[C@@H]1[C@H](O[C@@H]2OC[C@@H](O)[C@H](O)[C@H]2O)[C@@H](O)[C@H](O[C@H]2c3cc(C)c(C(=O)N[C@H](C)C(=O)O)c(O)c3-c3c(cc4c(c3O)C(=O)c3cc(OC)cc(O)c3C4=O)[C@@H]2O)O[C@@H]1C [Ex. 3, N-(ethoxycarbonylmethyl) pradimicin A]",
    "MIC [µg/mL]": 6.3
  },
  {
    "compound": "COc1cc(O)c2c(c1)C(=O)c1c(cc3c(c1O)-c1c(cc(C)c(C(=O)N[C@H](C)C(=O)O)c1O)[C@H](O[C@@H]1O[C@H](C)[C@H](N(C)CC(=O)O)[C@H](O[C@@H]4OC[C@@H](O)[C@H](O)[C@H]4O)[C@H]1O)[C@H]3O)C2=O",
    "MIC [µg/mL]": 12.5
  }
]

Here is the next item to consider.
# value of MIC, Cryptococcus neoformans IAM4514, item "COc1cc(O)c2c(c1)C(=O)c1c(cc3c(c1O)-c1c(cc(C)c(C(=O)N[C@H](C)C(=O)O)c1O)[C@H](O[C@@H]1O[C@H](C)[C@H](N(C)C(=O)CN(C)C)[C@H](O[C@@H]4OC[C@@H](O)[C@H](O)[C@H]4O)[C@H]1O)[C@H]3O)C2=O" = 3.1
